A collection of binders and their measured Kd
# System Tested: T1, recombinant human IL-25 protein (human, UniProt Q9H293 33-177)
# T1 construct: Bought (Acro, catalog no: IL5-H4221) for ELISA; also called hIL-25; IL-17E
# T1 sequence: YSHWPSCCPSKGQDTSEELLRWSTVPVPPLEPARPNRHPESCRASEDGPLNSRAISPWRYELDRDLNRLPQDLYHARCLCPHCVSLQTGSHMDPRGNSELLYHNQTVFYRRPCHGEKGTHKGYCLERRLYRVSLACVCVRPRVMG
# Procedure Summary: BLI, Fab; species of IL-25 not stated, taken as human
Give a bare numeral; the unit nM is implied.

The following binders have reported results that may help.
Ask: Looking for the measured Kd of IL25Ab6 Fab (Fab, V domains shown) VH: QVQLVQSGAEVKKPGASVKVSCKASGYSFTGYTMNWVRQAPGQGLEWMGLINPDNGGTSYKQKFQGRVTMTVDKSISTAYMELSRLRSDDTAVYYCAREGYYGPSPFHHYAMDYWGQGTLVTVSS VL: DIQMTQSPSSLSASVGDRVTITCQASQDISNYLNWYQQKPGKAPKLLIYYTSTLHTGVPSRFSGSGSGTDYTFTISSLQPEDIATYYCQQYSKLPYTFGQGTKLEIK , can you help?
Reply: 1.86

Ask: Looking for the measured Kd of IL25Ab3 Fab (Fab, V domains shown, VH/VL assigned as for IL25Ab3; also called murine parental Fab) VH: EVQLQQSGPELVKPGGSVRISCKASGYSFTGYTMNWVKQSHGKNLEWIGLINPDNGGTSHKQRFMGKATLTVDKSSSTAYMELLSLTSEDSAVYYCAREGYYGPSPFHHYAMDYWGQGTSVTVSS VL: DIQMTQTTSSLSASLGDRVTISCSASQDISNYLNWYQQKPDGTIKLLIYYTSTLHSGVPSRFSGSGSGTDYSLTISNLEPEDIATYYCQQYSKLPYTFGGGTKLEIK , can you help?
Reply: 1.89

Ask: Looking for the measured Kd of IL25Ab7 Fab (Fab, V domains shown, VH/VL assigned as for IL25Ab7) VH: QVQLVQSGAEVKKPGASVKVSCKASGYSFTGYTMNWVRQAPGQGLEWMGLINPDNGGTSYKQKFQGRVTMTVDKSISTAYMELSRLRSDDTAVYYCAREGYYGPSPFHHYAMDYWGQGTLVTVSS VL: DIQMTQSPSSLSASVGDRVTITCQASQDISNYLNWYQQKPDGTIKLLIYYTSTLHTGVPSRFSGSGSGTDYTFTISSLQPEDIATYYCQQYSKLPYTFGQGTKLEIK , can you help?
Reply: 1.8

Here is another binder to look at.
Ask: Looking for the measured Kd of IL25Ab8 Fab (Fab, V domains shown, VH/VL assigned as for IL25Ab8) VH: QVQLVQSGAEVKKPGASVKVSCKASGYSFTGYTMNWVRQAHGKNLEWMGLINPDNGGTSHKQKFQGRVTMTVDKSISTAYMELSRLRSDDTAVYYCAREGYYGPSPFHHYAMDYWGQGTLVTVSS VL: DIQMTQSPSSLSASVGDRVTITCQASQDISNYLNWYQQKPDGTIKLLIYYTSTLHTGVPSRFSGSGSGTDYTLTISSLQPEDIATYYCQQYSKLPYTFGGGTKLEIK , can you help?
Reply: 1.78
